Reference for the values: ChEMBL document CHEMBL1157448

Tested on: Yarrowia lipolytica
experimentDescription: Antimycotic activity against Yarrowia lipolytica DBVPG 6053 by agar diffusion disk bioassay
Assay type: functional
measuredMetric: inhibition zone (IZ)

| molecule | measuredMetric | measuredResult |
| --- | --- | --- |
| COc1ccc(C2CSc3ccc(O)cc3O2)cc1 (centres undefined) | inhibition zone (IZ) | 15.6 mm |
| Oc1ccc(C2CSc3ccc(O)cc3O2)cc1 (centres undefined) | inhibition zone (IZ) | 16.5 mm |
| Oc1ccc(C2CSc3cc(O)ccc3O2)cc1 (centres undefined) | inhibition zone (IZ) | 14.3 mm |
| COc1ccc2c(c1)OC(c1ccc(O)cc1)CS2 (centres undefined) | inhibition zone (IZ) | 15.8 mm |
